FYI, the data here is from PubChem BioAssay.

molecular target: Carbonic anhydrase 2 (Homo sapiens); assay: CAII small-molecule binders, profiling panel, biochemical, small-molecule microarray, Alexa647-labelled CAII (AID 1122); details: CAII-A647 binding fluorescence, higher = more signal
This listing pairs compounds with measured composite z-score.
Number, no unit, nothing else.

Before answering, review these 10 worked examples.
Compound: O=C1OCCC=C[C@H]2OC34C=CCN(Cc5ccccc5)C(=O)[C@H]3N(CCO)C(=O)[C@@H]4C12 (some centres undefined)
Target Entity: Carbonic anhydrase 2 (Homo sapiens)
Reported: 0.459
--
Compound: C[C@@H]1NC(=O)[C@H](Cc2ccccc2)NC(=O)[C@@]23C(=O)N[C@@H](Cc4ccccc4)C2[C@H](C)[C@@]2(C)O[C@H]2C3/C=C/C/C=C\CNC1=O (some centres undefined)
Target Entity: Carbonic anhydrase 2 (Homo sapiens)
Reported: 0.82
--
Compound: COc1ccc(C(=O)Nc2ccc(CN3C(=O)[C@]4(O[C@H](CCn5cc(CCO)nn5)[C@@H]([Si](C)(C)c5ccc(OC)cc5)[C@@H]4C)c4ccccc43)cc2)cc1
Target Entity: Carbonic anhydrase 2 (Homo sapiens)
Reported: 0.697
--
Compound: COC(=O)[C@@]1(Cc2ccccc2)[C@H]2c3cc(C(=O)N4CCCC4)n(CCN4CNCC4=O)c3C[C@H]2CN1C(=O)c1ccccc1
Target Entity: Carbonic anhydrase 2 (Homo sapiens)
Reported: 0.924
--
Compound: COc1ccc(NN2C(C(O)c3cc(OC)c(OC)c(OC)c3)C=CC3C(=O)N(C4CCCCC4)C(=O)C32)cc1 (centres undefined)
Target Entity: Carbonic anhydrase 2 (Homo sapiens)
Reported: 0.211
--
Compound: CCCNC(=O)[C@@]1(Sc2ccc(C)cc2)CC(=O)N(Cc2ccccc2Cl)[C@@H]1c1ccc(CO)cc1
Target Entity: Carbonic anhydrase 2 (Homo sapiens)
Reported: 0.572
--
Compound: CO[C@@H]1COC(=O)[C@H](C)NC(=O)CC=C[C@@H](C)[C@H](OC)COC(=O)[C@H](C)NC(=O)CC=C[C@H]1C
Target Entity: Carbonic anhydrase 2 (Homo sapiens)
Reported: -0.305
--
Compound: C=CCNC(=O)[C@H]1[C@@H]2C(=O)O[C@@H](c3ccccc3)[C@@H](c3ccccc3)N2[C@@H](c2ccccc2OCCO)[C@]12C(=O)N(C(=O)OCCOC)c1ccc(C#CCC(C(=O)OC)C(=O)OC)cc12
Target Entity: Carbonic anhydrase 2 (Homo sapiens)
Reported: 0.634
--
Compound: C=C[C@H](OC)[C@@H](OC(=O)Nc1ccc(SC)cc1)c1ccc(OC)c(O)c1
Target Entity: Carbonic anhydrase 2 (Homo sapiens)
Reported: 0.1
--
Compound: C[C@@H]1NC(=O)CC=C[C@@H](C)[C@@H]2C=C[C@H](O)[C@@H](COC(=O)[C@H](C)NC(=O)CC=C[C@@H](C)[C@@H]3C=C[C@H](O)[C@@H](COC1=O)O3)O2
Target Entity: Carbonic anhydrase 2 (Homo sapiens)
Reported: -0.0551

Given C=CCC(OC(C)=O)[C@@H]1[C@@H](N(Cc2cccc3ccccc23)C(=O)Cc2ccc(F)cc2)c2cc(OCCCO)ccc2N1C(=O)Cc1ccc2ccccc2c1 (some centres undefined) , report its composite z-score on Carbonic anhydrase 2 (Homo sapiens). -0.117

# return composite z-score of CC(C)N1CC=CC23O[C@@H]4/C=C\CCCOC(=O)C4[C@H]2C(=O)N(CCO)[C@@H]3C1=O (some centres undefined) (system: Carbonic anhydrase 2 (Homo sapiens)) 0.893

// fetch composite z-score for CC[C@@H]1C=C(C(=O)O)[C@H](c2ccccc2)N1S(=O)(=O)c1ccc([N+](=O)[O-])cc1 ; system: Carbonic anhydrase 2 (Homo sapiens) 0.514

Recall the reported composite z-score of C=CCC(OC(C)=O)[C@@H]1[C@@H](N(Cc2ccc(-c3cccc(C(F)(F)F)c3)o2)C(=O)Cc2ccc(F)cc2)c2cc(OCCCO)ccc2N1C(=O)c1ccc(-c2ccccc2)cc1 (some centres undefined) on Carbonic anhydrase 2 (Homo sapiens) and write it down. -0.215
